Form field: Tm (one value per entry).
test: melting temperature; fluorescence melt of hairpins on a sequencing array, two-state fit, raised by 9.35 °C to match UV melts; conditions: sodium 0.088 M

sequence: GTCAGCGAAAGCTGTGAC ((((((....)))..)))
Tm (°C): 39.5

sequence: GGCGTGGGAAACCACGTC (.(((((....))))).)
Tm (°C): 62.3

sequence: GAATACCGAAAGGTGTTC (((.(((....))).)))
Tm (°C): 51.2

sequence: GCGTGGCGAAAGCTATGC ((.(.((....)).).))
Tm (°C): 52.5

sequence: GTTATCGAAAGATAAAAC ((((((....)))..)))
Tm (°C): 26.5

sequence: GTGCGTCGAAAGACCAC (((.(((....))))))
Tm (°C): 56.2

sequence: GAGGTGCGAAAGCATCTC (((.(((....))).)))
Tm (°C): 59.3

sequence: GAGCGGCGAAAGCCCCTC (((.(((....))).)))
Tm (°C): 46.7

sequence: GCGATAGTTCGC ((((....))))
Tm (°C): 50.4

sequence: GAAGTGCGAAAGCAGTTC (((.(((....))).)))
Tm (°C): 57.5

sequence: GGCTCGTCGAAAGACGCC (((..(((....))))))
Tm (°C): 42

sequence: GATCAATCTTTTGATC ((((((....))))))
Tm (°C): 46.5

sequence: GCCTTCGAAAGAATAGGC ((((((....)))..)))
Tm (°C): 44.8

sequence: GACTCTGGAAACAGAATC ((.((((....)))).))
Tm (°C): 28.5

sequence: GCGCTTGGAAACAAGCAC (.(((((....))))).)
Tm (°C): 45.7

sequence: GACAGCGAAAGCTGCGTC ((((((....)))..)))
Tm (°C): 48

sequence: GATCCGTTCCGGATC ((((((...))))))
Tm (°C): 59.2

sequence: GTACGCGCGAAAGCGTAC (((..(((....))))))
Tm (°C): 61.3

sequence: GTACGCCGAAAGGCCTAC (((.(((....))).)))
Tm (°C): 39.2

sequence: GCGCCGCGAAAGCGCAGC ((..(((....)))..))
Tm (°C): 59.8
